- TESTED_ON: Macrophage-stimulating protein receptor (Homo sapiens, UniProt Q04912)
- MEASUREMENT_NOTES: Inhibition of N-terminal GST-tagged human recombinant RON (979 to 1400(end) residues) expressed in Sf21 cells incubated for 20 mins followed by ATP addition measured after 60 mins by TR-FRET based LanthaScreen kinase assay
QUANTITY_MEASURED: IC50 (pM)

Record excerpt, results attached:
{"COMPOUND": "CCOc1ccn(-c2ccc(F)cc2)c(=O)c1C(=O)Nc1ccc(Oc2ccnc3cc(-c4ccc(CN5CCC(F)CC5)cn4)sc23)c(F)c1", "QUANTITY_MEASURED": "IC50", "EXPERIMENTAL_RESULT": 1820}
{"COMPOUND": "CN1CCC(Oc2ccn(-c3ccc(F)cc3)c(=O)c2C(=O)Nc2ccc(Oc3ccnc4cc(-c5ccc(CN6CCOCC6)cn5)sc34)c(F)c2)C1 (stereo not drawn)", "QUANTITY_MEASURED": "IC50", "EXPERIMENTAL_RESULT": 5470}

P = CN(C)CCOc1ccn(-c2ccc(F)cc2)c(=O)c1C(=O)Nc1ccc(Oc2ccnc3cc(-c4ccc(CN5CCOCC5)cn4)sc23)c(F)c1
Q = CCOc1ccn(-c2ccc(F)cc2)c(=O)c1C(=O)Nc1ccc(Oc2ccnc3cc(-c4ccc(CN5CC(OC)C5)cn4)sc23)c(F)c1
R = CCOc1ccn(-c2ccc(F)cc2)c(=O)c1C(=O)Nc1ccc(Oc2ccnc3cc(-c4ccc(CN5CCC(F)(F)C5)cn4)sc23)c(F)c1
S = CCOc1ccn(-c2ccc(C(F)(F)F)cc2)c(=O)c1C(=O)Nc1ccc(Oc2ccnc3cc(-c4ccc(CN5CCOCC5)cn4)sc23)c(F)c1
T = CCOc1ccn(-c2ccc(F)cc2)c(=O)c1C(=O)Nc1ccc(Oc2ccnc3cc(-c4ccc(CN5CC(F)(F)C5)cn4)sc23)c(F)c1
Given 5 compounds, produce a descending ranking by IC50. Please write the labels in the order that was asked for.
S, P, R, T, Q
(S: 17300 pM, P: 2150 pM, R: 860 pM, T: 480 pM, Q: 160 pM)

a = CN1CCC(COc2ccn(-c3ccc(F)cc3)c(=O)c2C(=O)Nc2ccc(Oc3ccnc4cc(-c5ccc(CN6CCOCC6)cn5)sc34)c(F)c2)C1 (stereo not drawn)
b = CCOc1ccn(-c2ccc(F)cc2)c(=O)c1C(=O)Nc1ccc(Oc2ccnc3cc(-c4ccccn4)sc23)c(F)c1
c = CCOc1ccn(-c2ccc(F)cc2)c(=O)c1C(=O)Nc1ccc(Oc2ccnc3cc(-c4ccc(OCCN5CCOCC5)cn4)sc23)c(F)c1
d = CCOc1ccn(-c2ccc(F)cc2)c(=O)c1C(=O)Nc1ccc(Oc2ccnc3cc(-c4ccc(CN5CCC(OC)CC5)cn4)sc23)c(F)c1
Put these in order: smallest IC50 first, largest last. Please write the labels in the order that was asked for.
b, d, c, a
(b: 480 pM, d: 730 pM, c: 2390 pM, a: 75600 pM)

A = CCOc1ccn(-c2ccc(F)cc2)c(=O)c1C(=O)Nc1cc(F)c(Oc2ccnc3cc(-c4ccc(CN5CCOCC5)cn4)sc23)c(F)c1
B = CCOc1ccn(-c2ccc(F)cc2)c(=O)c1C(=O)Nc1ccc(Oc2ccnc3cc(-c4ccc(CN5CC(F)C5)cn4)sc23)c(F)c1
Please choose the item with the lower IC50 value from this pair: A and B Provide the label of your selected option as the answer.
B
(B: 630 pM, A: 2250 pM)
